# credit: PubChem BioAssay AID1963976

system: 435261-313-R-J1-PDC tumor spheroid viability; assay: Anticancer human tumor 435261-313-R-J1-PDC patient-derived colon adenocarcinoma cell line growth inhibition [PI3K]; settings: second compound 0.1 µM; first compound 1 µM; stronger effect = lower value; spheroids with HUVEC and MSC;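 note: spheroids exposed to compounds for 7 days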
valueKind: viability, T/C (%)
Express it in %; write the number only.

# count of solved cases: 2
# compound, reportedResult
rows = [
    ("CC1(C)CCC(Nc2ncc(C(F)(F)F)c(-c3c[nH]c4c(P(C)(C)=O)c(C#N)ccc34)n2)CN1 (centres undefined) + CC(Nc1ccc2c(c1)OCCn1cc(N3C(=O)OCC3C(F)F)nc1-2)C(N)=O", 30.2),
    ("CC1(C)CCC(Nc2ncc(C(F)(F)F)c(-c3c[nH]c4c(P(C)(C)=O)c(C#N)ccc34)n2)CN1 (centres undefined) + COc1c(OCCCN2CCOCC2)ccc2c3n(c(=NC(=O)c4cnc(N)nc4)nc12)CCN3", 18.6),
]

Short answer on 435261-313-R-J1-PDC tumor spheroid viability for C[C@@H](NC(=O)c1ncnc(N)c1Cl)c1ncc(C(=O)Nc2cc(C(F)(F)F)c(Cl)cn2)s1 + CC(Nc1ccc2c(c1)OCCn1cc(N3C(=O)OCC3C(F)F)nc1-2)C(N)=O , viability, T/C: 77.2

viability, T/C on 435261-313-R-J1-PDC tumor spheroid viability for Cn1ncc(Cl)c1-c1cc(C(=O)NC(CN)Cc2cccc(F)c2)sc1Cl (centres undefined) + CC(Nc1ccc2c(c1)OCCn1cc(N3C(=O)OCC3C(F)F)nc1-2)C(N)=O is 19.4

Lab note: compound CC(Cn1ccc(-c2ccc(C#N)c(Cl)c2)n1)NC(=O)c1cc(C(C)O)[nH]n1 (centres undefined) + Cc1nc(NC(=O)N2CCCC2C(N)=O)sc1-c1ccnc(C(C)(C)C(F)(F)F)c1 tested on 435261-313-R-J1-PDC tumor spheroid viability; recorded viability, T/C was 72.2
